- Tested on: 883617-216-R-J1-PDC complex spheroid viability;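 also: spheroids exposed to compounds for seven days before readout; 100% = DMSO vehicle control viability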
- TEST: Anticancer human tumor 883617-216-R-J1-PDC patient-derived bladder carcinoma cell line growth inhibition [POLQ]
- SETUP_CONDITIONS: second compound 0.0316 µM; first compound 0.000316 µM; stronger effect = lower value
OBSERVATION_TYPE: viability, T/C (%)
Numbers only, in %.

# count of solved cases: 2
COMPOUND	viability, T/C (%)
Cn1ncnc1[C@H]1c2n[nH]c(=O)c3cc(F)cc(c23)N[C@@H]1c1ccc(F)cc1 + Cc1cccc(N(C)C(=O)C2C(O)CCN2c2nc(C)cc(C(F)(F)F)c2C#N)c1	99.2
CC[C@@]1(O)C(=O)OCc2c1cc1n(c2=O)Cc2cc3c(CN(C)C)c(O)ccc3nc2-1 + COC1C(OC(N)=O)C(O)C(Oc2ccc3c(O)c(NC(=O)c4ccc(O)c(CC=C(C)C)c4)c(=O)oc3c2C)OC1(C)C	110

Field: next compound
// query Recorded viability, T/C for CC[C@@]1(O)C(=O)OCc2c1cc1n(c2=O)Cc2cc3c(CN(C)C)c(O)ccc3nc2-1 + Nc1ccc(C#CCN(C(=O)Cc2ncc(C(F)(F)F)cc2C(F)(F)F)c2ccc(F)cc2)nn1 , please?
// result 104
